Target: furin, P09958;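 further: purified furin at 1:10 enzyme:substrate in 50 mM HEPES pH 7.5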
Sequence (P09958 whole entry): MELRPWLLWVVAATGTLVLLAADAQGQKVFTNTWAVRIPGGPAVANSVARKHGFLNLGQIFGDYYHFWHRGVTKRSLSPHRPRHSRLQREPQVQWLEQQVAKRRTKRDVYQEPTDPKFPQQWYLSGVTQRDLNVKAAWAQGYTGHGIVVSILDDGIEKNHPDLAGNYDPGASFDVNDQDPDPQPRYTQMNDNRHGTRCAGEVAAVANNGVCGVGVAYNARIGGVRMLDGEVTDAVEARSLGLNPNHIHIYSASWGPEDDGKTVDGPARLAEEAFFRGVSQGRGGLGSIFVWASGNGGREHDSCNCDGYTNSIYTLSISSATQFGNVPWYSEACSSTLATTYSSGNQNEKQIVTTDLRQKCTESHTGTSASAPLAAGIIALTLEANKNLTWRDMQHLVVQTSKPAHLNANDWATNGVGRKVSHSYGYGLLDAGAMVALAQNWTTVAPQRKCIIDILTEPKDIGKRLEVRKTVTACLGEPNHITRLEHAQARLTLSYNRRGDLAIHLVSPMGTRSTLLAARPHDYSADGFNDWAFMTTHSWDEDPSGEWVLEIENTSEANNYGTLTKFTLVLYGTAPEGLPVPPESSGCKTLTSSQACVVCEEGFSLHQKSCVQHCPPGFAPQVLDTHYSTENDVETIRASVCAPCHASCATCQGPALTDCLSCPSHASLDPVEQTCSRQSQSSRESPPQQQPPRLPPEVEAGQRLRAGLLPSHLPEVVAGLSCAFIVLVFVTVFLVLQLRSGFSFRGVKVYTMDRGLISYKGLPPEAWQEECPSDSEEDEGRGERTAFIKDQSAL
Assay: furin cleavage Z-score vs untreated control; higher = more cleavage, active = 3.5 or more, inactive = 1 or less, 8 variable residues between constant flanks
Conditions: 15 min
The list shows a part of the results. How many sequences the whole screen found active is unknown.
Returns one of MET or NOT MET; MET when furin cleavage Z-score is >= -0.2.

As a guide, the following entries are already answered.
Exercise: Is reported furin cleavage Z-score greater than or equal to -0.2 here: CAFLTRLRRPAGNASASA [FS-769]
Key: MET

Exercise: Is reported furin cleavage Z-score greater than or equal to -0.2 here: CARTVVLTESAGNASASA [HC1326]
Key: MET

Exercise: Is reported furin cleavage Z-score greater than or equal to -0.2 here: CAQGGRPPRPAGNASASA [FS-1055]
Key: NOT MET

Exercise: Is reported furin cleavage Z-score greater than or equal to -0.2 here: CAAKQRERRYAGNASASA [FS-1300]
Key: MET

Exercise: Is reported furin cleavage Z-score greater than or equal to -0.2 here: CAYCFTPSPVAGNASASA [HC414]
Key: NOT MET

Further cases:
Exercise: Is reported furin cleavage Z-score greater than or equal to -0.2 here: CALPSRETRYAGNASASA [FS-1364]
Key: MET

Exercise: Is reported furin cleavage Z-score greater than or equal to -0.2 here: CAVVCCSMSQAGNASASA [HC2102]
Key: MET

Exercise: Is reported furin cleavage Z-score greater than or equal to -0.2 here: CALPSRLRRMAGNASASA [FS-55]
Key: MET

Exercise: Is reported furin cleavage Z-score greater than or equal to -0.2 here: CAGKFLADGGAGNASASA [HC809]
Key: NOT MET

Exercise: Is reported furin cleavage Z-score greater than or equal to -0.2 here: CASRGRLRRLAGNASASA [FS-1572]
Key: MET

Exercise: Is reported furin cleavage Z-score greater than or equal to -0.2 here: CAADHRFYRYAGNASASA [FS-1507]
Key: NOT MET

Exercise: Is reported furin cleavage Z-score greater than or equal to -0.2 here: CAATATPPGSAGNASASA [HC834]
Key: MET

Exercise: Is reported furin cleavage Z-score greater than or equal to -0.2 here: CATTPCSFSWAGNASASA [HC1887]
Key: NOT MET

Exercise: Is reported furin cleavage Z-score greater than or equal to -0.2 here: CAMEECSQSLAGNASASA [HC1757]
Key: NOT MET

Measured values drawn from the supplement of paper PMC3545927 for this set.
